Target: Lysophosphatidic acid receptor 1 (Homo sapiens)
Sequence (Q92633 whole entry): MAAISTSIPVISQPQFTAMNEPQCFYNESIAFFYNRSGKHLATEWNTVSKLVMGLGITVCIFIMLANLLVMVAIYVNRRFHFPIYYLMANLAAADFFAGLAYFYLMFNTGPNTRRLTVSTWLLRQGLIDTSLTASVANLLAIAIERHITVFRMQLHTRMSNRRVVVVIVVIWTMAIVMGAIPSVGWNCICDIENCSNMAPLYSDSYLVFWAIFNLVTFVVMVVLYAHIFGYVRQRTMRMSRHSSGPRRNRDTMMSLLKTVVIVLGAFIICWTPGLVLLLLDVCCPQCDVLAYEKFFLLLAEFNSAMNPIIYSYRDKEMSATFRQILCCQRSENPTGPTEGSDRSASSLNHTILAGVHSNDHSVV
Assay: Antagonist activity at human wild-type LPA1 receptor expressed in HEK293 cells assessed as internalization incubated for 30 mins by BRET assay
Type: cell-based
metric: EC50

## Input GET /values?readout=EC50&item= `C[C@@H](OC(=O)Nc1c(-c2ccc(NC(=O)c3cnc(C(F)(F)F)nc3)cn2)nnn1C)c1cc(F)cnc1F`
## Output 11.7 nM

---

# AUC(0-t) at 24 h values compiled below
Test: AUC (0 to 24 hrs) in male Sprague-Dawley rat at 5 mg/kg, po measured after 24 hrs by LC/MS/MS analysis
Format: ADME, organism-based
Details: in vivo
Only the number, expressed in µM·h, is required.

[[record]]
smiles_text = "C[C@@H](OC(=O)Nc1c(-c2ccc(NC(=O)c3cnc(C(F)(F)F)nc3)cn2)nnn1C)c1cc(F)cnc1F"
metric = "AUC(0-t) at 24 h"
reading_unit = "µM·h"
experimental_value = 5.1


Read the next record carefully.
## Input What value of AUC(0-t) at 24 h has been reported for the following molecule? `C[C@@H](OC(=O)Nc1c(-c2ccc(NS(C)(=O)=O)cn2)nnn1C)c1cc(F)cnc1F`
## Output 5.4

---

Experiment: Metabolic stability in cynomolgus monkey liver microsomes assessed as intrinsic clearance at 1 uM by LC/MS/MS analysis
Assay type: ADME, Macaca fascicularis, Microsome
Details: read-out: CLH (converted)
Each item that follows carries a reported CLint scaled at 1 µM.
Number in mL/min/kg, nothing else.

[[record]]
smiles_text = "C[C@@H](OC(=O)Nc1c(-c2ccc(NS(C)(=O)=O)cn2)nnn1C)c1cc(F)cnc1F"
reading_unit = "mL/min/kg"
experimental_value = 7.17


## Input Look up CLint scaled at 1 µM: `C[C@@H](OC(=O)Nc1c(-c2ccc(NC(=O)c3cnc(C(F)(F)F)nc3)cn2)nnn1C)c1cc(F)cnc1F`
## Output 7.5

---

Target: Lysophosphatidic acid receptor 3 (Homo sapiens, UniProt Q9UBY5)
Sequence (Q9UBY5 whole entry): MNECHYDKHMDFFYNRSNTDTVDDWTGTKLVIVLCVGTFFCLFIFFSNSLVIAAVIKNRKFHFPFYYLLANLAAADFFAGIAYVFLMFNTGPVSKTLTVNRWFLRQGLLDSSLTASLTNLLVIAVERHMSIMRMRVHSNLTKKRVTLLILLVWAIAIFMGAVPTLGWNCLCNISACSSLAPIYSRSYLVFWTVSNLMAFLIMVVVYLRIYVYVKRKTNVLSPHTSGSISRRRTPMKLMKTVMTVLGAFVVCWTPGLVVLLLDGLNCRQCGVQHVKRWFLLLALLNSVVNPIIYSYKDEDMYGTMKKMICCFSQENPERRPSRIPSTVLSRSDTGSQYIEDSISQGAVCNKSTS
Test: Antagonist activity at human LPA3 receptor overexpressed in CHO cells pre-incubated for 1 hr followed by LPA addition by fluorescence based FLIPR calcium assay
pEC50: −log10 of the molar value.
metric: pEC50

## Input Reported pEC50 for `C[C@@H](OC(=O)Nc1c(-c2ccc(NC(=O)c3cnc(C(F)(F)F)nc3)cn2)nnn1C)c1cc(F)cnc1F` : what is it?
## Output < 5.00

---

Assay: Lipophilicity, logD of compound at pH 7.4
Type: physicochemical
Conditions: buffer
Listing of recorded logD by entry.
Enter a number only.

Sample answers from the record:
[[record]]
smiles_text = "Cc1nc(-c2nnn(C)c2NC(=O)O[C@H](C)c2cc(F)ccc2F)ccc1NS(C)(=O)=O"
experimental_value = 2.4

[[record]]
smiles_text = "Cc1ccc(C(=O)Nc2ccc(-c3nnn(C)c3NC(=O)O[C@H](C)c3cc(F)cnc3F)nc2)cn1"
experimental_value = 1.7

[[record]]
smiles_text = "C[C@@H](OC(=O)Nc1c(-c2ccc(NC(=O)c3cnc(C(F)(F)F)nc3)cn2)nnn1C)c1cc(F)cnc1F"
experimental_value = 2.7

[[record]]
smiles_text = "C[C@@H](OC(=O)Nc1c(-c2ccc(NS(C)(=O)=O)cc2)nnn1C)c1ccccc1Cl"
experimental_value = 2.4

[[record]]
smiles_text = "Cc1nc(-c2nnn(C)c2NC(=O)O[C@H](C)c2ccccc2Cl)ccc1NS(C)(=O)=O"
experimental_value = 2.5

[[record]]
smiles_text = "C[C@@H](OC(=O)Nc1c(-c2ccc(S(=O)(=O)NC3CC3)cc2)nnn1C)c1ccccc1Cl"
experimental_value = 2.9

[[record]]
smiles_text = "C[C@@H](OC(=O)Nc1c(-c2ccc(NS(C)(=O)=O)cn2)nnn1C)c1ccccc1Cl"
experimental_value = 2.2

[[record]]
smiles_text = "C[C@@H](OC(=O)Nc1c(-c2ccc(NC(=O)C34CC(F)(C3)C4)cn2)nnn1C)c1cc(F)cnc1F"
experimental_value = 2.3


Consider the additional compound presented here.
## Input What value of measured logD is listed for `Cc1nc(-c2nnn(C)c2NC(=O)O[C@H](C)c2cc(F)cnc2F)ccc1NS(C)(=O)=O` ?
## Output 1.7
